Tested on: Ipomoea hederacea (IPOHE)
Assay: Glasshouse herbicidal test, pre- and post-emergence (Table B1)
Format: in vivo
Conditions: pre-emergence, 130 g/h, evaluated after 13 days
property: percentage damage caused to the plant, PRE Application IPOHE

Give the reported value of percentage damage caused to the plant, PRE Application IPOHE for this record: CCn1nnnc1NC(=O)c1ccc(OC(F)(F)F)c(NS(C)(=O)=O)c1Cl 4 (4=60-79%)

Give the reported value of percentage damage caused to the plant, PRE Application IPOHE for this record: Cn1nnnc1NC(=O)c1ccc(OC(F)(F)F)c(NS(=O)(=O)CC2CC2)c1Cl 5 (5=80-100%)

Give the reported value of percentage damage caused to the plant, PRE Application IPOHE for this record: Cn1nnnc1NC(=O)c1ccc(OC(F)F)c(NS(C)(=O)=O)c1Cl 2 (2=20-39%)
